Source: paper PMC6792352

Assay: in vitro
Conditions: rat, gh3-tre-luc cells, AC50 (uM) modified / 1000, Tox21_110001=Tox21_200667; viability, 1 nM T3 present, 24 h
measurementLabel: CC50 at 24 h

IN: Requested read-out: CC50 at 24 h. Entry: CC(Cl)C(C)Cl (stereo not shown) [2,3-Dichlorobutane]
OUT: > 90 µM

---

Reported values of CC50 at 24 h for individual entries
Assay: in vitro
Conditions: rat, gh3-tre-luc cells, AC50 (uM) modified / 1000
Counter-ions that a name gives are not always drawn.

compound | CC50 at 24 h
NC(=O)CCCCC(N)=O [Adipamide] | > 90 µM
CCCCOC(=O)c1ccccc1C(=O)OCCCC [Dibutyl phthalate] | > 90 µM
NC(=O)c1ccncc1 [Isonicotinamide] | > 100 µM
NC(N)=NN=C(/C=C/c1ccc([N+](=O)[O-])o1)/C=C/c1ccc([N+](=O)[O-])o1 | 1.82 µM
Oc1ccc(Cc2ccc(O)cc2)cc1 [Bis(4-hydroxyphenyl)methane] | > 90 µM
CCC(C)CO (stereo not drawn) | > 100 µM
CCOC(=O)CC(=O)c1ccccc1 [Ethyl benzoylacetate] | > 90 µM
CCCCN(CCCC)CCCC | > 90 µM
CCC(CC)Nc1c([N+](=O)[O-])cc(C)c(C)c1[N+](=O)[O-] | 76.7 µM
CN1CCN(CCCN2c3ccccc3Sc3ccc(C(F)(F)F)cc32)CC1 [Fluoperazine dihydrochloride] | 7.86 µM

IN: Need CC50 at 24 h of c1ccc2c(c1)-c1cccc3cccc-2c13 , thanks.
OUT: > 90 µM

IN: And what about the compound CN(C)CCN(Cc1ccccc1)c1ccccn1 [Tripelennamine citrate] ?
OUT: > 50 µM

IN: What about this compound? COc1ccc(/C=C/S(=O)(=O)NC(=O)c2ccc(C)cc2Cl)cc1
OUT: > 90 µM

IN: Then OCCOCCOCCO ?
OUT: > 100 µM

IN: Please give the result for OC[C@H]1O[C@@H](n2cnc3c(S)ncnc32)[C@H](O)[C@@H]1O too.
OUT: > 50 µM

IN: Also check Cc1cccc(C)c1NC(=O)CN1CCCC1
OUT: > 50 µM

IN: // next record Cc1c(N)cccc1Cl
OUT: > 90 µM

IN: Consider next the compound CCOC(=O)NC(O)C(Cl)(Cl)Cl (stereo not drawn) in the same way.
OUT: > 50 µM

IN: Queued: F/C(COc1ccc2c(c1)[nH]c1ccccc12)=C1/CN2CCC1CC2
OUT: 7.59 µM

IN: Same question, CC1(C)OC[C@@H](COC(=O)CCc2ccc(OC[C@@H](O)CNCCNC(=O)N3CCOCC3)cc2)O1 [Landiolol hydrochloride] this time
OUT: > 50 µM

IN: Further, for CC(=O)c1ccc[nH]1 ?
OUT: > 90 µM
